Measured target: T1, Extracellular domain of TIM-3 with Flag and His tag (human)
T1 construct: also called TIM-3-Flag-His
Method description: Biacore SPR; antibody as stationary phase, 'TIM-3-His' as mobile phase
Endpoint name: Kd (nM)
Please state the figure in nM; there is no need to write the unit.

Worked set:
h1701-009NEA (antibody, human IgG4 S228P, kappa, V domains shown, HCDR2 point-mutation variant of h1701-009 (NNG to NEA); IgG4 (S228P)/kappa) VH: QVQLVQSGAEVKKPGASVKVSCKASGYTFTDYYMNWVRQAPGQGLEWMGDIIPNEAGSKYNQKFKDRVTMTTDTSTSTAYMELRSLRSDDTAVYYCATWGYGSSYRWFDYWGQGTLVTVSS VL: DIQMTQSPSSLSASVGDRVTITCLASQPIGIWLAWYQQKPGKAPKLLIYAATSLADGVPSRFSGSGSGTDFTFTISSLQPEDIATYYCQQLYSSPWTFGGGTKVEIKR | 0.653
h1701-009NMG (antibody, human IgG4 S228P, kappa, V domains shown, HCDR2 point-mutation variant of h1701-009 (NNG to NMG); IgG4 (S228P)/kappa) VH: QVQLVQSGAEVKKPGASVKVSCKASGYTFTDYYMNWVRQAPGQGLEWMGDIIPNMGGSKYNQKFKDRVTMTTDTSTSTAYMELRSLRSDDTAVYYCATWGYGSSYRWFDYWGQGTLVTVSS VL: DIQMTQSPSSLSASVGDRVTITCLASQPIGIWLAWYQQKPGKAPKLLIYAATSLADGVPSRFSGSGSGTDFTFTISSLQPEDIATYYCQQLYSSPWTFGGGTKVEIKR | 0.675

Record request: Kd value, item h1701-009 (antibody, human IgG4 S228P, kappa, V domains shown, Humanized IgG4 (S228P)/kappa) VH: QVQLVQSGAEVKKPGASVKVSCKASGYTFTDYYMNWVRQAPGQGLEWMGDIIPNNGGSKYNQKFKDRVTMTTDTSTSTAYMELRSLRSDDTAVYYCATWGYGSSYRWFDYWGQGTLVTVSS VL: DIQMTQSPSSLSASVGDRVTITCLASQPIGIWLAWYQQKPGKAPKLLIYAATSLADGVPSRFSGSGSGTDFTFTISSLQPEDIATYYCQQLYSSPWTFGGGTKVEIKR
0.599

The origin of these recorded values is patent US20190375839A1.
